Data origin, for the record: ChEMBL document CHEMBL4819018

The following compounds are listed with their measured pEC50 values.
Target: Cannabinoid receptor 2 (Homo sapiens, UniProt P34972)
Sequence (P34972 whole entry): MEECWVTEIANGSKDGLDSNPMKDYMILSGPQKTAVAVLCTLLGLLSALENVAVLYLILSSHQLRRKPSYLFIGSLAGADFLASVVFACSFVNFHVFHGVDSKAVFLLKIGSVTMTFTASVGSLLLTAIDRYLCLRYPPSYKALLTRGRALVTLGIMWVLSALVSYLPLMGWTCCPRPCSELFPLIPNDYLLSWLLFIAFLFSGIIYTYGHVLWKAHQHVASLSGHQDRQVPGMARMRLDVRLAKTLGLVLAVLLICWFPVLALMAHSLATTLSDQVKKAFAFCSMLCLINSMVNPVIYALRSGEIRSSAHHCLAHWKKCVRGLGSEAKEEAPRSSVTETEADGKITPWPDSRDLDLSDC
Experiment: Positive allosteric modulator activity at human CB2R expressed in CHO-K1 cells assessed as potentiation of CP55940-stimulated inhibition of forskolin-induced cAMP accumulation measured after 90 mins by HitHunter cAMP assay
Assay type: functional, cell-based
Note on units: pEC50 is unitless, being -log10 of a concentration expressed in mol/L.

Cc1c(Br)cn(Cc2ccccc2Cl)c(=O)c1NC(=O)C1CCCCCC1 = 7.82

Please look at the following compound next.
Field request: pEC50 | item: Cc1c(Br)cn(Cc2ccc(F)cc2)c(=O)c1NC(=O)C1CCCCCC1
8.42
